meta.source: paper PMC11487390

In this section we review reported EC50 at 3 days values for a set of compounds.
# protocolSummary: Cytotoxicity assay, MRC-5SV2 cells, resazurin, 3 days
# Assay type: cell-based
# experimentalParameters: human, MRC-5SV2 human lung fibroblast cells, MRC-5 cells, highest concentration 64 µM
valueType: EC50 at 3 days (µM)

INSERT INTO results (structurestring, valueobserved) VALUES
  ('CNC(=O)c1cc(Oc2ccc(NCc3cn(-c4ccccc4)nc3-c3ccc4c(c3)OCO4)cc2)ccn1', 60.7),
  ('CN1CCN(CCNC(=O)c2cn(-c3ccccc3)nc2-c2ccc3c(c2)OCCO3)CC1', 19),
  ('c1ccc(Cc2cn(-c3ccccc3)nc2-c2ccc3c(c2)OCCO3)cc1', 59.5);

====

# protocolSummary: Cytotoxicity assay, MRC-5SV2 cells, resazurin, 3 days
# Format: cell-based
# experimentalParameters: human, MRC-5SV2 human lung fibroblast cells, MRC-5 cells, highest concentration 64 µM
In this section we review reported log10 of EC50 at 3 days values for a set of compounds.
valueType: log10 of EC50 at 3 days (log10 of the value in µM)

INSERT INTO assay_data (structurestring, valueobserved) VALUES
  ('O=C(NCCc1cccnc1)c1cn(-c2ccccc2)nc1-c1ccc2c(c1)OCCO2', 1.65),
  ('c1ccc(-n2cc(CN3CCCC3)c(-c3ccc4c(c3)OCCO4)n2)cc1', 1.26),
  ('COc1ccc(-c2nn(-c3ccccc3)cc2CNCCc2cccnc2)cc1', 1.21),
  ('CNC(=O)c1ccc(NCc2cn(-c3ccccc3)nc2-c2ccc3c(c2)OCCO3)cn1', 1.70),
  ('O=C(NCCN1CCCC1)c1cn(-c2ccccc2)nc1-c1ccc2c(c1)OCCO2', 1.45),
  ('O=C(c1cn(-c2ccccc2)nc1-c1ccc2c(c1)OCCO2)N1CCCC1', 1.37),
  ('Fc1ccc(CNCc2cn(-c3ccccc3)nc2-c2ccc3c(c2)OCCO3)cc1', 0.82),
  ('c1ccc(-n2cc(CNCCN3CCOCC3)c(-c3ccc4c(c3)OCCO4)n2)cc1', 1.47),
  ('c1ccc(-n2cc(CNCCc3cccnc3)c(-c3ccc4c(c3)OCO4)n2)cc1', 1.29),
  ('COc1ccc(-c2nn(-c3ccccc3)cc2CNCCc2ccncc2)cc1', 0.98),
  ('FCc1cn(-c2ccccc2)nc1-c1ccc2c(c1)OCCO2', 1.35),
  ('c1ccc(-n2cc(CNCCc3ccncc3)c(-c3ccc4c(c3)OCO4)n2)cc1', 0.60),
  ('FC(F)c1cn(-c2ccccc2)nc1-c1ccc2c(c1)OCCO2', 1.34),
  ('O=C(NCc1ccc(F)cc1)c1cn(-c2ccccc2)nc1-c1ccc2c(c1)OCCO2', 1.81),
  ('c1ccc(CNCc2cn(-c3ccccc3)nc2-c2ccc3c(c2)OCCO3)cc1', 0.73),
  ('Fc1ccc(-n2cc(COCc3cn(-c4ccccc4)nc3-c3ccc4c(c3)OCCO4)nn2)cc1', 1.71),
  ('O=C(Nc1ccccc1)c1cn(-c2ccccc2)nc1-c1ccc2c(c1)OCCO2', 0.96),
  ('c1ccc(-n2cc(CNCCN3CCOCC3)c(-c3ccc4c(c3)OCO4)n2)cc1', 1.23),
  ('Fc1ccc(CNCc2cn(-c3ccccc3)nc2-c2ccc3c(c2)OCO3)cc1', 0.00),
  ('c1ccc(-n2cc(CNCCc3ccncc3)c(-c3ccc4c(c3)OCCO4)n2)cc1', 1.31),
  ('c1ccc(-n2cc(CNCCc3cccnc3)c(-c3ccc4c(c3)OCCO4)n2)cc1', 0.95),
  ('O=C(NCCc1ccccc1)c1cn(-c2ccccc2)nc1-c1ccc2c(c1)OCCO2', 0.19),
  ('c1ccc(-n2cc(CNCCN3CCCC3)c(-c3ccc4c(c3)OCCO4)n2)cc1', 1.34),
  ('COc1ccc(-c2nn(-c3ccccc3)cc2CN2CCCC2)cc1', 1.51);
